For each record, write down the corresponding cell count.
protocol notes: cell-permeable autofluorescent compounds in GFP channel, dose response, artefact control, imaging, high-content imaging (AID 2124);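 on cell count: cells exposed to compound for 48 hours before fixing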
experimental context: cells, GFP-channel autofluorescence, high-content imaging; cell count; at 10 µM
Results filed as inconclusive are left out.
Numbers only, in cells.

Guide cases for cell count, answers given:
# compound, scale unit, cell count
records = [
    ("O=C(Nc1ccc(N2CCCCC2)cc1)c1cccnc1", "cells", 3060),
    ("O=C1CN(C(=O)COc2ncnc3ccccc23)c2ccccc2N1", "cells", 3020),
]

Please give cell count for each item listed below.
1. COc1ccc(C)cc1NC(=O)CC(NC(C)=O)c1ccccc1 (configuration not stated)
2. COc1cc(OC)c(OC)cc1/C=C1\Oc2cc(OS(C)(=O)=O)ccc2C1=O
3. C1=C(N2CCOCC2)/C(=C/c2nc3ccccc3[nH]2)CC1

A:
1. 3060
2. 3060
3. 3040

Please give cell count for each item listed below.
1. Cc1cc(/C=C2\NC(=S)N(C)C2=O)ccc1N1CCCC1
2. O=C(/C=C/c1c[nH]c2ccccc12)c1c(O)n(CCc2ccccc2)c(=O)[nH]c1=O
3. Cc1ccc(C2(C(F)(F)F)N=C3Sc4cc(C)ccc4N3C(=O)N2)cc1 (configuration not stated)
4. Nc1c(C(=O)c2cccs2)sc2nsc(SCCN3CCCCC3)c12

A:
1. 2980
2. 2920
3. 2940
4. 2930

Please give cell count for each item listed below.
1. Cc1ccn2c(NC3CCCCC3)c(C)nc2c1
2. Nc1ccc(-c2nc3nc(N)nc(N)c3nc2-c2ccc(N)cc2)cc1
3. O=c1[nH]c2ccccc2nc1/C=C/c1ccc(F)cc1

A:
1: 2990; 2: 2980; 3: 3060

---

For each record, write down the corresponding cell count.
protocol notes: cell-permeable autofluorescent compounds in GFP channel, dose response, artefact control, imaging, high-content imaging (AID 2124);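 on cell count: cells exposed to compound for 48 hours before fixing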
experimental context: cells, GFP-channel autofluorescence, high-content imaging; cell count; at 10 µM
Records with an inconclusive call do not appear.
Answers are plain numbers, in cells.

Guide cases for cell count, answers given:
# molecule, cell count, cells
measured = [
    ("CCC(C)N1C(=O)/C(=C/c2c(NCCCOC(C)C)nc3c(C)cccn3c2=O)SC1=S (stereo unspecified)", 2350),
    ("Cc1n[nH]c(C)c1N1C(=O)c2cccc3c(N4CCCCCC4)ccc(c23)C1=O", 2690),
    ("CC1CCCCC1NC(=O)COC(=O)c1c2c(nc3ccccc13)/C(=C/c1ccco1)CC2 (stereo unspecified)", 2820),
]

Please give cell count for each item listed below.
1. COc1ccc(C2C=C(c3cccs3)Nc3nc(CCCO)nn32)cc1 (stereo unspecified)
2. CCS(=O)(=O)N1Cc2ccccc2CC1C(=O)OCC(=O)Nc1ccc(C)cc1 (stereo unspecified)
3. Cc1cc(C)cc(NC(=O)/C=C/c2ccc([N+](=O)[O-])s2)c1
4. NC(=O)c1cc2ccc(O)cc2oc1=NCc1ccccc1
5. O=C(CSc1ncn[nH]1)NCc1ccccc1

A:
1: 2650; 2: 3150; 3: 960; 4: 3140; 5: 3380

Please give cell count for each item listed below.
1. Cn1c(=O)c(NC2CCCCC2)c2c3c(cccc31)C(=O)c1ccccc1-2
2. O=C1CCCC(O)=C1C=NCCc1ccccc1
3. O=C(Cc1nc(-c2ccc([N+](=O)[O-])cc2)cs1)Nc1ccccc1

A:
[3050, 3080, 2770]

Please give cell count for each item listed below.
1. Cc1cc(C)n(-c2ccc(C(=O)OCC(=O)N(CC(C)C)C3CCS(=O)(=O)C3)cc2)n1 (stereo unspecified)
2. Cc1ccc2[nH]c(-c3ccccc3)c(CN(C)C)c(=O)c2c1
3. Cc1ccc(NC(=O)CCl)c(C)c1
4. COc1ccc(C2C(C(=O)N3CCOCC3)CCC(=O)N2c2ccc(OC)cc2)cc1 (stereo unspecified)

A:
3480
3240
2480
3020

Please give cell count for each item listed below.
1. CCCN1CC=C2C(C#N)=C(N)C(C#N)(C#N)C(c3cc(OC)ccc3OC)C2C1 (stereo unspecified)
2. CCCN1C=CC(=C/C=C(\C#N)C(=O)OCC)C=C1
3. Nc1nc(-c2ccc(Cl)cc2)c(N=Nc2ccc(S(=O)(=O)N3CCOCC3)cc2)s1
4. COc1ccc2c(n1)Sc1nc3ccccc3nc1N2
5. CCOC(=O)/C(=C\C=C1/Sc2cc(OCC)c(OCC)cc2N1CC)C(C)=O
6. Nc1c(C(=O)O)sc2nc(-c3ccccc3)cc(-c3ccccc3)c12
7. CCN1CC=C2C(C#N)=C(N)C(C#N)(C#N)[C@H](c3cccc(OC)c3OC)[C@H]2C1

A:
3140
2900
2990
3030
2790
3320
2790

Please give cell count for each item listed below.
1. O=C(N/N=C\c1cn(-c2ccccc2)nc1-c1ccccc1)c1ccc(Br)o1
2. CCCSc1nc2sc3c(c2c(=O)[nH]1)CCN(Cc1ccccc1)C3
3. Cc1ccc(-n2c3c(c(=O)[nH]c2=O)C(C(F)(F)F)(C(F)(F)F)NC(=O)N3)cc1
4. COc1ccc(OCC(=O)Nc2ccc(S(=O)(=O)Nc3cc(C)nc(C)n3)cc2)cc1

A:
1. 626
2. 3160
3. 2850
4. 3070

---

For each record, write down the corresponding cell count.
protocol notes: cell-permeable autofluorescent compounds in GFP channel, dose response, artefact control, imaging, high-content imaging (AID 2124);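 on cell count: cells exposed to compound for 48 hours before fixing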
experimental context: cells, GFP-channel autofluorescence, high-content imaging; cell count; at 10 µM
Records with an inconclusive call do not appear.
One number for each entry, in cells.

Guide cases for cell count, answers given:
# smiles, cell count [cells]
measured = [
    ("COc1nc(OC)nc(N2CCC(C(=O)NCc3cccs3)CC2)n1", 2940),
    ("Cc1noc(C)c1CS(=O)(=O)c1ccc(Br)cc1", 2900),
]

Q: Give the measured cell count of `CC(=O)Cc1cc(O)c2ccccc2c1OC(=O)c1ccc(Br)cc1` .
A: 2650

---

System: cells, GFP-channel autofluorescence, high-content imaging
protocol notes: cell-permeable autofluorescent compounds in GFP channel, dose response, artefact control, imaging, high-content imaging (AID 2124)
Inconclusive results are not listed. Calls of active or inactive are those of the source. The rule behind the calls is not given here; tested in MIN6 cells.
Use one of these outcomes when replying: 1.0 (active), 0.0 (inactive)

Examples with answers:
# compound, label class
measured = [
    ("Cc1cc2nc3c(=O)n(C4CCCCC4)c(=O)[nH]c3nc2cc1N", 0.0),
    ("COc1cc2c3nnc(-c4ccc(F)cc4)c-3cn(Cc3ccccc3)c2cc1OC", 1.0),
    ("CC(=O)Nc1cccc(C(=O)/C=C/c2ccc(N(C)C)cc2)c1", 0.0),
    ("O=[N+]([O-])c1ccc(/C=C/C2=NN(c3ccccc3)C(c3ccco3)C2)o1 (configuration not stated)", 1.0),
]

Please examine the following record next.
Q: Outcome logged for CN1CC=C2C(C#N)=C(N)C(C#N)(C#N)C(c3ccsc3)C2C1 (configuration not stated) in this assay:
A: 0.0

---

protocol notes: cell-permeable autofluorescent compounds in GFP channel, dose response, artefact control, imaging, high-content imaging (AID 2124);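 on cell count: cells exposed to compound for 48 hours before fixing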
experimental context: cells, GFP-channel autofluorescence, high-content imaging; cell count; at 10 µM
Inconclusive results are not listed.
metric: cell count
Hi, when you answer, please include the unit after the number. Thanks!

# smiles, metric, experimental result
records = [
    ("Cc1ccc2nc(/C(C#N)=C\\c3ccc(N4CCOCC4)o3)[nH]c2c1", "cell count", "2680 cells"),
]

Please give cell count for each item listed below.
1. Cc1ccc(C(=O)NN2C(=O)/C(=C/c3cn(C)c4ccccc34)SC2=S)cc1
2. CCCN1C(=O)S/C(=C/c2ccc(N3CCOCC3)o2)C1=O
3. COc1ccc(/C=C2\CC/C(=C\c3ccc(OC)cc3OC)C2=O)c(OC)c1
4. CCn1c(SCC(=O)c2c[nH]c3ccccc23)nc2cc(S(=O)(=O)N3CCOCC3)ccc21
5. Cc1ccccc1-c1nnc(-c2ccc(Cl)cc2)o1
6. COc1ccc(NC(=O)CSc2nnc(-c3cccs3)n2C)cc1OC
7. Cc1ccc(SCc2cc(-c3ccc(Cl)cc3)no2)cc1
8. CCN1C(=O)/C(=C/C=C2\N(CC)c3cc(S(=O)(=O)N(C)C)ccc3N2c2ccccc2)SC1=S

A:
3060 cells
3210 cells
3090 cells
3200 cells
2820 cells
2880 cells
2860 cells
2840 cells

Please give cell count for each item listed below.
1. N#C/C(=C\C1=C(N2CCOCC2)C(=C\c2ccc(Cl)cc2)/CC1)C(=O)Nc1ccccc1F
2. CCOC(=O)N1CCN(/C=C(\C#N)c2nc3ccccc3s2)CC1
3. COc1ccc(C2=NC(=O)/C(=C\c3cc(OC)c(OC)c(OC)c3)O2)cc1

A:
["3010 cells", "2980 cells", "2830 cells"]

---

protocol notes: cell-permeable autofluorescent compounds in GFP channel, dose response, artefact control, imaging, high-content imaging (AID 2124);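 on cell count: cells exposed to compound for 48 hours before fixing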
experimental context: cells, GFP-channel autofluorescence, high-content imaging; cell count; at 10 µM
Results filed as inconclusive are left out.
For each record, write down the corresponding cell count.
Numbers only, in cells.

# molecule, experimental result
data = [
    ("O=c1c(N2CCOCC2)c(N2CCOCC2)c1=O", 3130),
]

Please give cell count for each item listed below.
1. Nc1nnc(-c2cc3c(ccc4ccccc43)oc2=O)s1
2. COc1ccc2c(c1)NC(c1ccc(N(C)C)cc1)c1cccn1-2 (stereo not given)
3. CCN(CC)c1ccc2cc(-c3nc4ccccc4[nH]3)c(=O)oc2c1
4. OC(COc1cccc2ccccc12)CN1CCN(c2ccccc2Cl)CC1 (stereo not given)
5. Cc1cccc(NC(=O)Nc2ccc(C#N)cc2)n1
6. CCOc1ccc(NC(=O)C2CCC(C)(C(=O)O)C2(C)C)cc1 (stereo not given)
7. Cc1ccnc(N2C(=O)c3cccc4c([N+](=O)[O-])ccc(c34)C2=O)c1

A:
[2510, 2940, 1680, 3270, 2800, 3170, 350]
